Test system: VCaP cells
measurement.description: VCaP growth inhibition assay (CTG)
Assay type: cell-based
condition.context: Homo sapiens, 216 h, 30 pM R1881, 9-day treatment, CTG luminescence
Method: Example B-2: VCaP Growth Inhibition Assay […] After the 9-day treatment period, media was removed from the cluster plates by inversion and 100 uL room temperature CTG reagent (Promega Cat #G7573) is added to each well. […] Following this shaking/incubation, cluster plates are read on a luminometer (BMG ClarioStar). […]
recorded.metric: IC50

Check out these entries, answers already filled in.
smiles.notation	result
CNC(=O)N1CCc2c(c(N3CCCc4cc(-c5cnn(C)c5)c(C(F)F)cc43)nn2C2CCN(C(=O)COCC3CCN(c4ccc([C@H]5c6ccc(O)cc6CC[C@H]5c5ccccc5)cc4)CC3)CC2)C1	1 to 100 nM
CNC(=O)N1CCc2c(c(N3CCCc4cc(-c5cnn(C)c5)c(C(F)F)cc43)nn2C2CCN(C(=O)COCCOCCN3CCN(CC4CCN(c5ccc([C@H]6c7ccc(O)cc7CC[C@H]6c6ccccc6)cc5)CC4)CC3)CC2)C1	> 100 nM
CC(=O)N1CCc2c(c(-c3cccc4cc(-c5cnn(CCOC6CCN(c7ccc(C8CCN(c9ccc(C#N)c(C(F)(F)F)c9)CC8)cc7)CC6)c5)ncc34)nn2C2CCOCC2)C1	1 to 100 nM

input: Find the recorded IC50 belonging to `CNC(=O)N1CCc2c(c(N3CCCc4cc(-c5cnn(C)c5)c(C(F)F)cc43)nn2C2CCN(C(=O)COCCCC3CCN(c4ccc([C@H]5c6ccc(O)cc6CC[C@H]5c5ccccc5)cc4)CC3)CC2)C1` and report it.
output: 1 to 100 nM

input: Consider the compound `CC(=O)N1CCc2c(c(N3CCCc4cc(C#N)ccc43)nn2C2CCN(C(=O)C3CCN(c4ccc(C5CCN(c6ccc(C#N)c(C(F)(F)F)c6)CC5)cc4)CC3)CC2)C1` and give its measured IC50.
output: > 100 nM

----------
IC50: recorded values
Test system: VCaP cells
measurement.description: VCaP growth inhibition assay (CTG)
Assay type: cell-based
condition.context: Homo sapiens, 216 h, 30 pM R1881, 9-day treatment, CTG luminescence

compound	IC50
CC(=O)N1CCc2c(c(-c3cccc4cc(-c5ccc(CCC6CCN(c7ccc(C8CCN(c9ccc(C#N)c(C(F)(F)F)c9)CC8)cc7)CC6)nc5)ncc34)nn2C2CCOCC2)C1 [Compound 14]	> 100 nM
CNC(=O)N1CCc2c(c(N3CCCc4cc(-c5cnn(C)c5)c(C(F)F)cc43)nn2C2CCN(C(=O)COCCOCC3CCN(CC4CCN(c5ccc([C@H]6c7ccc(O)cc7CC[C@H]6c6ccccc6)cc5)CC4)CC3)CC2)C1 [Compound 10]	1 to 100 nM

input: Write down the reported IC50 of CC(=O)N1CCc2c(c(N3CCCc4cc(C#N)ccc43)nn2C2CCN(CC3CCN(c4ccc(C5CCN(c6ccc(C#N)c(C(F)(F)F)c6)CC5)cc4)CC3)CC2)C1 [Compound 13] , test system: VCaP cells.
output: > 100 nM

input: GET /values?readout=IC50&system=VCaP cells&item= CC(=O)N1CCc2c(c(N3CCCc4cc(-c5cnn(C)c5)c(C(F)F)cc43)nn2C2CCN(CCCOc3ccc(C4CCN(c5ccc(C#N)c(C(F)(F)F)c5)CC4)cc3)CC2)C1 [Compound 4]
output: > 100 nM

----------
Here, each record is paired with measured pIC50 data.
System: VCaP cells
measurement.description: VCaP growth inhibition assay (CTG)
Assay type: cell-based
condition.context: Homo sapiens, 216 h, 30 pM R1881, 9-day treatment, CTG luminescence
pIC50: −log10 of the molar value.

smiles.notation	target.desc	pIC50
CNC(=O)N1CCc2c(c(N3CCCc4cc(-c5cnn(C)c5)c(C(F)F)cc43)nn2C2CCN(C(=O)CC3CCN(c4ccc([C@H]5c6ccc(O)cc6CC[C@H]5c5ccccc5)cc4)CC3)CC2)C1	VCaP cells	7.00 to 9.00

input: Given the molecule `CNC(=O)N1CCc2c(c(N3CCCc4cc(-c5cnn(C)c5)c(C(F)F)cc43)nn2C2CCN(C(=O)CCC3CCN(c4ccc([C@H]5c6ccc(O)cc6CC[C@H]5c5ccccc5)cc4)CC3)CC2)C1` , what is its reported pIC50?
output: 7.00 to 9.00

input: Would you mind telling me what pIC50 value was observed for `CC(=O)N1CCc2c(c(N3CCCc4cc(-c5cnn(C)c5)c(C(F)F)cc43)nn2C2CCN(CCCOc3ccc(-c4ccc(N5C(=S)N(c6ccc(C#N)c(C(F)(F)F)c6)C(=O)C5(C)C)cc4)cc3)CC2)C1` ?
output: < 7.00
